Here's what we have: IC50 numbers for human ACC2 (Homo sapiens (Human), UniProt O00763).
Numbers only, in µM.

Solved entries (count: 2):
molecule	IC50 (µM)
COC(=O)NC(C)CCc1ccc(Oc2ccc(OC(C)C)nc2)cc1 (stereo not drawn)	0.21
CC(=O)N[C@@H](C)COc1ccc(Oc2ccc(OC(C)C)cc2)nc1	2.5

I would be grateful if you could provide IC50 for each of the following entries.
1. CC(=O)N[C@@H](C)CCc1ccc(Oc2ccc(OCc3ccccc3)cn2)cc1
2. CC(CCc1ccc(Oc2ccc(OC(C)C)nc2)cc1)NC(=O)C1CC1 (stereo not drawn)

1: 0.1; 2: 0.09

* * *

testedTarget: rACC2 (Rattus norvegicus, UniProt O70151)
Sequence (O70151 1-2456): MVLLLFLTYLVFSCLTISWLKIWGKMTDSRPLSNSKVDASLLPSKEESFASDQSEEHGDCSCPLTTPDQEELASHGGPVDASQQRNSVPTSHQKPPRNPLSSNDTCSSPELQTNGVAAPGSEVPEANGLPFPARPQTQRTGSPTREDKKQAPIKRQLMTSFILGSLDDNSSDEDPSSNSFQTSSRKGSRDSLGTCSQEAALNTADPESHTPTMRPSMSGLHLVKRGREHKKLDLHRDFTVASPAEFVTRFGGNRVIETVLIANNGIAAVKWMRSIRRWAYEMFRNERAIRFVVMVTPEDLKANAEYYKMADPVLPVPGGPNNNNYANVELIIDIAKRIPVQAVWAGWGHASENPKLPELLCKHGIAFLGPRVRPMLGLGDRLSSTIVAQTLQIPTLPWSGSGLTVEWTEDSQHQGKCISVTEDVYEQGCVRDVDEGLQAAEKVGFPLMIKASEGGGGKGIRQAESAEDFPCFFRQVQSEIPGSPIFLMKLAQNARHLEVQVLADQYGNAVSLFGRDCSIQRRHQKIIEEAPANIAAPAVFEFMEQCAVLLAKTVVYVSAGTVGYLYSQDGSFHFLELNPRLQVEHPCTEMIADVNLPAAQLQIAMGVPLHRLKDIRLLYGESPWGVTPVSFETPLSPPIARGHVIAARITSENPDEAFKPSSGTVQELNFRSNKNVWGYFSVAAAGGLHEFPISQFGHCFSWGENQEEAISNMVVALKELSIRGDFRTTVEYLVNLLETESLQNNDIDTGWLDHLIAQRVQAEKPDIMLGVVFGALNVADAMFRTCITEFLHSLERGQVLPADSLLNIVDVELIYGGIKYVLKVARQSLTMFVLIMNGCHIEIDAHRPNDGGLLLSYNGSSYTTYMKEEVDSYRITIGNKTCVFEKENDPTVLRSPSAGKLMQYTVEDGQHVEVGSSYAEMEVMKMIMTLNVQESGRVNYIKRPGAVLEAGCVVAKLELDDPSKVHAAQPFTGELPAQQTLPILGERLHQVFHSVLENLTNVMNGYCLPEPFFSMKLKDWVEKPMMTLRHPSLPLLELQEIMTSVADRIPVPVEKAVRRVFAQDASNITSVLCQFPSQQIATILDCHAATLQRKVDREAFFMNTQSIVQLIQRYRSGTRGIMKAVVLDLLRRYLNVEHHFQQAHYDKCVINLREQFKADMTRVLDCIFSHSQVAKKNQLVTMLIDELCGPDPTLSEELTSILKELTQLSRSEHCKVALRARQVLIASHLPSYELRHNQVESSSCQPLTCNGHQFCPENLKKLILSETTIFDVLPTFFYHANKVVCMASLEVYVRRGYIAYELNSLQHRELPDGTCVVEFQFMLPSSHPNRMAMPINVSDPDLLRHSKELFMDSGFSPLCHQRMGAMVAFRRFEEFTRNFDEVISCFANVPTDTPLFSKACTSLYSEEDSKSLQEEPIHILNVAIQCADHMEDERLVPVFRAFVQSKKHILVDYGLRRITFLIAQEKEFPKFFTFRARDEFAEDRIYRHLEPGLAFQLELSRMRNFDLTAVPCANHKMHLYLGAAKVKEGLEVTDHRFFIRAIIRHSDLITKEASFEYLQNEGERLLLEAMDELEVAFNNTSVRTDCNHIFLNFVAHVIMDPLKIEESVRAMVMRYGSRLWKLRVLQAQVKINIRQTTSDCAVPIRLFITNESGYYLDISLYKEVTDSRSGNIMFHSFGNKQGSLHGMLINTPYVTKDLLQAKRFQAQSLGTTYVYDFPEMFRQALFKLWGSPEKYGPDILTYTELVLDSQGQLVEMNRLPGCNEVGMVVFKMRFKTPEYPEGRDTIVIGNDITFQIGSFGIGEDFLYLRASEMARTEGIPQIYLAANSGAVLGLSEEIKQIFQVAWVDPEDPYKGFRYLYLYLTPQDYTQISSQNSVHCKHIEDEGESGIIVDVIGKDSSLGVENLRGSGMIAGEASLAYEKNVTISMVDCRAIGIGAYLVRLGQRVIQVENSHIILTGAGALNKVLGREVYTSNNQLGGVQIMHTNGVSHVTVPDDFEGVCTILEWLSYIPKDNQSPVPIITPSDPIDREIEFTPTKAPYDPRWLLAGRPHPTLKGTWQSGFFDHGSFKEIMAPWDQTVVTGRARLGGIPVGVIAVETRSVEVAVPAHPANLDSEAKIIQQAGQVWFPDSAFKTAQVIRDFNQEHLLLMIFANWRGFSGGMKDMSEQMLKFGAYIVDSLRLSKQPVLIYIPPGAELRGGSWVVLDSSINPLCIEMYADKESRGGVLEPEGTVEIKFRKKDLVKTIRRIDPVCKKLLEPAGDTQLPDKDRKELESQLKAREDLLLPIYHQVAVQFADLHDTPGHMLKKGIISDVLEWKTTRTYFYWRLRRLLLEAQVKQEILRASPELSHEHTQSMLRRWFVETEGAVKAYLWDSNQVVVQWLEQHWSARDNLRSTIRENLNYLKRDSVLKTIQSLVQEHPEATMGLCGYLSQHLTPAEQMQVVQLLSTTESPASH
procedureSummary: Enzymatic assay of ACC inhibitors, rat ACC2
Assay type: biochemical
parameter: IC50 (nM)
Give bare numbers, in nM.

So what's the measured IC50 for this one? CC(=O)N[C@@H](C)COc1ccc(Oc2ccc(OC(C)C)cc2)cc1 [Example 59, reference compound]
1500

* * *

Would you kindly list IC50 for each of these compounds?
testedTarget: human ACC2 (Homo sapiens (Human))
Sequence (O00763 151-2458): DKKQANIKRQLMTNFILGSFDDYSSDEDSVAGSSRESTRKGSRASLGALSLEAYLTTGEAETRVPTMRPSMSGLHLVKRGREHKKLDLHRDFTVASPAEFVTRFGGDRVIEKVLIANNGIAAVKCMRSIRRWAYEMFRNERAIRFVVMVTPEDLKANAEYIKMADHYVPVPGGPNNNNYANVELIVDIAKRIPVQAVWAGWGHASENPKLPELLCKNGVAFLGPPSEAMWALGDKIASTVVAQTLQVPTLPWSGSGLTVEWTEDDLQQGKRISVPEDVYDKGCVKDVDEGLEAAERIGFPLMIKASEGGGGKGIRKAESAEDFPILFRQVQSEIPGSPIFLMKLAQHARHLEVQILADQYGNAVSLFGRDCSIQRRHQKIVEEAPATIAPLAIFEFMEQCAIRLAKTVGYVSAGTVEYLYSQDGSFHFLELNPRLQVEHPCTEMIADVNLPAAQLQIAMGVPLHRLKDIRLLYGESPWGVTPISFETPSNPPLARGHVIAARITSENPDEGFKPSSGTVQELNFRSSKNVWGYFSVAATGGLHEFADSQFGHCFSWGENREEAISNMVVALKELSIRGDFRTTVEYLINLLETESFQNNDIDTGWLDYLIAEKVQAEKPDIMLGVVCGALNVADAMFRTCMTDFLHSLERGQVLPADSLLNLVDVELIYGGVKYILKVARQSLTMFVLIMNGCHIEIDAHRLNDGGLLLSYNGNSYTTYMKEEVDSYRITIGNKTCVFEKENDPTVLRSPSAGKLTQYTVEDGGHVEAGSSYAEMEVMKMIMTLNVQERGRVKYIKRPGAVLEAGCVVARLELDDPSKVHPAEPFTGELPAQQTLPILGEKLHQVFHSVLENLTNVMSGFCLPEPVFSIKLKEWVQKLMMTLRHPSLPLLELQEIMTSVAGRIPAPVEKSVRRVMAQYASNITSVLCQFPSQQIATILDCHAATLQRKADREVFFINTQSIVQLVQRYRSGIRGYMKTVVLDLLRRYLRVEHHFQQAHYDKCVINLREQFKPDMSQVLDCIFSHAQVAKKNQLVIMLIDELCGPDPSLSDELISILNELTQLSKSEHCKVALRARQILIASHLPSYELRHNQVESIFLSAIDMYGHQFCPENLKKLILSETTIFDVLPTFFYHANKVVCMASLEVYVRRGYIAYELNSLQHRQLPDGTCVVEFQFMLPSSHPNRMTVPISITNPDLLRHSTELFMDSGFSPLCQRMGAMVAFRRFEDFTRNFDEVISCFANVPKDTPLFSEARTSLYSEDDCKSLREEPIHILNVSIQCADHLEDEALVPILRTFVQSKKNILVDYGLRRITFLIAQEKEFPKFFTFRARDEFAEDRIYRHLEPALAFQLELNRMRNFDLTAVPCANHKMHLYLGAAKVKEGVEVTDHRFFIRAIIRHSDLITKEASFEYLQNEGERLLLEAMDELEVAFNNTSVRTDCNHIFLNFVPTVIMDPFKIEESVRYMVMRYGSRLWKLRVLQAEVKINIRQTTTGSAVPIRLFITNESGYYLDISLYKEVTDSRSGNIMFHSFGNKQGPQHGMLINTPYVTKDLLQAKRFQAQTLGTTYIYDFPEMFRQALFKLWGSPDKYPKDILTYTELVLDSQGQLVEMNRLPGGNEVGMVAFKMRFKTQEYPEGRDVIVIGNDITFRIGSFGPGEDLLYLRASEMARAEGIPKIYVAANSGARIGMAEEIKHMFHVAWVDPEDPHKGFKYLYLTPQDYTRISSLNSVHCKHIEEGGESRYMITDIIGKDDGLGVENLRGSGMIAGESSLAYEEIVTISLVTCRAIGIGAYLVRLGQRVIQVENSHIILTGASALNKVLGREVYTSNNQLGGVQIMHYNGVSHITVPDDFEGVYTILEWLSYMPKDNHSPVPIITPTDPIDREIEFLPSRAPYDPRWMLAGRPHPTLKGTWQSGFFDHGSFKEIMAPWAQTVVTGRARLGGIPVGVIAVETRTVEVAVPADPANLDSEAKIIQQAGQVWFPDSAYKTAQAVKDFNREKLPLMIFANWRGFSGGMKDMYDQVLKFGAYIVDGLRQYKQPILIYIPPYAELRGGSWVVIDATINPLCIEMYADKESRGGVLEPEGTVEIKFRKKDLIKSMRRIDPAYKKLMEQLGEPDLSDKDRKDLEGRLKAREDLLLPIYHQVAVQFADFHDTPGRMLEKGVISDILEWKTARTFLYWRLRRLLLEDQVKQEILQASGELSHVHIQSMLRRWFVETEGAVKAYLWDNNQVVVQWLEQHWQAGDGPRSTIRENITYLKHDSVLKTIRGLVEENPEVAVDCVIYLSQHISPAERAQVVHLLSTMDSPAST
Give bare numbers, in nM.

Solved entries (count: 6):
compound	IC50 / nM
CC(=O)NC(C)CCc1ccc(Oc2ccc(OC3CCOC3)cn2)cc1 (centres unmarked)	3600
CCCOc1ccc(Oc2ccc(CCC(C)NC(C)=O)cc2)nc1 (centres unmarked)	140
CC(CCc1ccc(Oc2ccc(OC(C)C)nc2)cc1)NC=O (centres unmarked)	670
CC(=O)NC(C)CCC1CCC(Oc2ccc(OC(C)C)nc2)CC1 (centres unmarked)	80
CC(=O)NC(C)CCc1ccc(Oc2ccc(OCc3ccccc3)cn2)cc1 (centres unmarked)	140
CC(=O)NC(C)CCc1ccc(Oc2ccc(OC3CCCC3)cn2)cc1 (centres unmarked)	140

I would be grateful if you could provide IC50 for each of the following entries.
1. CC(=O)NC(C)CCc1ccc(Oc2cnc(OC(C)C)cn2)cc1 (centres unmarked)
2. CC(=O)NC(C)COc1ccc(Oc2ccc(OC(C)C)cn2)cc1 (centres unmarked)

1200
1300
